Documented remaining at 168 h across a set of molecules
test: Stability in physiological solution at 37 degC after 7 days at pH 7 by HPLC analysis; format: physicochemical; conditions: read-out: Stability
Quick reminder: number only, in %, skip the unit.

Some solved cases for reference:
O=C1N[C@@H]2C(=C[C@H](O)[C@@H](O)[C@H]2OS(=O)(=O)O)c2cc3c(c(O)c21)OCO3 | 100
CCOC(=O)COc1c2c(cc3c1C(=O)N(CC(=O)OCC)[C@@H]1C3=C[C@H](OC(C)=O)[C@@H](OC(C)=O)[C@H]1OC(C)=O)OCO2 | 93
CCN1C(=O)c2c(cc3c(c2O)OCO3)C2=C[C@H](O)[C@@H](O)[C@@H](O)[C@@H]21 | 100

Below: the item to evaluate.
Query: Look up remaining at 168 h: "CC(=O)O[C@H]1C=C2c3cc4c(c(O)c3C(=O)N[C@H]2[C@H](O)[C@@H]1O)OCO4"
Reply: 20

---

experiment: Stability in physiological solution at 37 degC after 7 days at pH 7 by HPLC analysis; format: physicochemical; conditions: read-out: Stability
Recorded measurements of remaining at 168 h, one per entry
I only need the number, in %, no unit after it.

Consider the reported remaining at 168 h for these compounds:
CCCN[C@@H]1C[C@H]2c3cc4c(c(O)c3C(=O)N[C@H]2[C@H](O)[C@@H]1O)OCO4 | 99
CC(=O)N1Cc2c(cc3c(c2O)OCO3)C2=C[C@H](O)[C@@H](O)[C@@H](O)[C@@H]21 | 96
Oc1c2c(cc3c1OCO3)C1=C[C@H](O)[C@@H](O)[C@@H](O)[C@@H]1NC2 | 100
CC(=O)Oc1c2c(cc3c1C(=O)N[C@@H]1C3=C[C@H](OC(C)=O)[C@@H](O)[C@H]1O)OCO2 | 56
O=C(O)COc1c2c(cc3c1C(=O)N[C@@H]1C3=C[C@H](O)[C@@H](O)[C@H]1O)OCO2 | 100
O=C1N[C@@H]2C(=C[C@H](O)[C@@H](O)[C@H]2O)c2cc3c(c(O)c21)OCO3 | 100

Query: Which remaining at 168 h value belongs to "CCOC(=O)COc1c2c(cc3c1C(=O)N[C@@H]1C3=C[C@H](OC(C)=O)[C@@H](OC(C)=O)[C@H]1OC(C)=O)OCO2" ?
Reply: 93

Query: Using the record for "O=C1N[C@@H]2C(=C[C@H](O)[C@@H](O)[C@H]2O)c2cc3c(c(OCc4ccc5ccccc5c4)c21)OCO3" , report its remaining at 168 h.
Reply: 98

Query: Recorded remaining at 168 h of "CCOc1c2c(cc3c1C(=O)N[C@@H]1C3=C[C@H](O)[C@@H](O)[C@H]1O)OCO2" , please.
Reply: 96

Hey, just so you know, these numbers are from ChEMBL document CHEMBL1140933.
